Below, each entry is listed with its recorded pEC50.
TARGET_OR_TEST_SYSTEM: UniProt Q95V25
EXPERIMENT_DESCRIPTION: In vitro assay 1: C. elegans Slo-1a, action at a recombinant C. elegans CHO cell line (membrane potential measurement)
pEC50: −log10 of the molar value.
REPORTED_METRIC: pEC50

INSERT INTO assay_data (compound, quantitative_readout) VALUES
  ('Cc1nn2c(C3CC3)c(C(=O)N[C@H]3CCc4ccccc43)cnc2c1-c1cnn(CC2CC2)c1 [Example 446]', 7.90),
  ('Cc1nn2c(C3CC3)c(C(=O)N[C@H]3CCc4ccccc43)cnc2c1-c1cc(F)ccc1F [Example 422]', 8.40),
  ('Cc1nn2c(C(C)C)c(C(=O)N[C@H]3CCOc4ccccc43)cnc2c1-c1ccc(F)c(Cl)c1 [Example 186]', 7.80),
  ('Cc1nn2c(C(C)C)c(C(=O)N[C@H]3CCc4ccccc43)cnc2c1-c1cccc2c1OC(F)(F)O2 [Example 147]', 7.30);

* * *

TARGET_OR_TEST_SYSTEM: C. elegans Slo-1a (Caenorhabditis elegans)
Sequence (Q95V25 whole entry): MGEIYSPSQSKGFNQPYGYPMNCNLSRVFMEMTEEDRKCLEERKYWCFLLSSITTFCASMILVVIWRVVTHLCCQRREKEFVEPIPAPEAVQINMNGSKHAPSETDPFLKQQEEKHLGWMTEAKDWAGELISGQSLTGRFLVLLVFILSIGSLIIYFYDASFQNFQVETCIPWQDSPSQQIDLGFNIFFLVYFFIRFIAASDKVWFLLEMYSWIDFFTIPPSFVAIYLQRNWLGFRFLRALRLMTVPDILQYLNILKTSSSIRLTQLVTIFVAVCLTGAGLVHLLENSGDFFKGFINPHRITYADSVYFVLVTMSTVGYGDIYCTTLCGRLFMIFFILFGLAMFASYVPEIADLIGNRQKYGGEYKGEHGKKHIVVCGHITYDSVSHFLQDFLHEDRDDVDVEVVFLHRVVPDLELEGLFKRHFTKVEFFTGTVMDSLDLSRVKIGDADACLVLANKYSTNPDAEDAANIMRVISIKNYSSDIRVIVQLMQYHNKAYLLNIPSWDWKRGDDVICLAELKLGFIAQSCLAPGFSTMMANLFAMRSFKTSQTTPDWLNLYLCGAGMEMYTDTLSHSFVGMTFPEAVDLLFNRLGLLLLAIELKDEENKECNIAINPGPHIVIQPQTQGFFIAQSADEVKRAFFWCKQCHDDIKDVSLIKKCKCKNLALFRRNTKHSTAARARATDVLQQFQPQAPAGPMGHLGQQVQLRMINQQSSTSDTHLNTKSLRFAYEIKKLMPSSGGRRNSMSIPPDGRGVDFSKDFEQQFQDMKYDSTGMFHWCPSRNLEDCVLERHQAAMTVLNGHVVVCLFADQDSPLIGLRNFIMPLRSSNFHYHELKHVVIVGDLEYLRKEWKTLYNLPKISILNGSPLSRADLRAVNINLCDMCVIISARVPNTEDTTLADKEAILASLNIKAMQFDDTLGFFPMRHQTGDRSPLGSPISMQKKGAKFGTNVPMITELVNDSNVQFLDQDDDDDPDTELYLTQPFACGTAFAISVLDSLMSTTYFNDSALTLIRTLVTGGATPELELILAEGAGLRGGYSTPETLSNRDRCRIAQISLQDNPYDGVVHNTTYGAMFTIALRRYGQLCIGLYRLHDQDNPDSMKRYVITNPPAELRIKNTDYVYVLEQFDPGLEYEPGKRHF
EXPERIMENT_DESCRIPTION: In vitro assay 1: C. elegans Slo-1a, action at a recombinant C. elegans CHO cell line (membrane potential measurement)
CONDITION_PARAMETERS: CHO cells expressing C. elegans Slo-1a; voltage sensitive dye, FLIPR Tetra; negative decadic logarithm of EC50
This section presents compounds with their documented pE50 values.
REPORTED_METRIC: pE50

INSERT INTO measurements (compound, target_or_test_system, quantitative_readout) VALUES
  ('Cc1nn2c(N(C)C3CC3)c(C(=O)N[C@H]3CCOc4ccccc43)cnc2c1-c1cc(Cl)cc(Cl)c1', 'C. elegans Slo-1a (Caenorhabditis elegans)', 7.6),
  ('O=C(N[C@H]1CCOc2ccccc21)c1cnc2c(-c3c(F)ccc(Cl)c3F)c(C(F)F)nn2c1C1CC1', 'C. elegans Slo-1a (Caenorhabditis elegans)', 8.9),
  ('CC(C)c1c(C(=O)N[C@H]2CCOc3ccccc32)cnc2c(-c3cccc(Cl)c3)c(C(F)F)nn12', 'C. elegans Slo-1a (Caenorhabditis elegans)', 8),
  ('O=C(N[C@H]1CCOc2ccccc21)c1cnc2c(-c3cccc(Cl)c3Cl)c(C(F)F)nn2c1C1CC1', 'C. elegans Slo-1a (Caenorhabditis elegans)', 8.9),
  ('Cc1nn2c(N(C)CCS(C)(=O)=O)c(C(=O)N[C@H]3CCOc4ccccc43)cnc2c1-c1cc(Cl)cc(Cl)c1', 'C. elegans Slo-1a (Caenorhabditis elegans)', 8.0),
  ('Cc1ccc2c(c1)[C@@H](NC(=O)c1cnc3c(-c4ccccc4F)c(C)nn3c1C(C)C)CCC2', 'C. elegans Slo-1a (Caenorhabditis elegans)', 6.7),
  ('Cc1nn2c(C)c(C(=O)N[C@H]3CCCc4ccccc43)cnc2c1-c1cccc(C(F)(F)F)c1', 'C. elegans Slo-1a (Caenorhabditis elegans)', 6.7),
  ('CC(C)c1c(C(=O)N[C@H]2CCOc3ccccc32)cnc2c(-c3cccc(Cl)c3)c(Cl)nn12', 'C. elegans Slo-1a (Caenorhabditis elegans)', 7.9),
  ('CC(C)c1c(C(=O)N[C@H]2CCOc3ccccc32)cnc2c(-c3ccc(F)c(F)c3F)c(C(F)F)nn12', 'C. elegans Slo-1a (Caenorhabditis elegans)', 8.2),
  ('Cc1nn2c(C)c(C(=O)N[C@H]3CCc4ccccc43)cnc2c1-c1ccccc1Cl', 'C. elegans Slo-1a (Caenorhabditis elegans)', 7.7),
  ('CC(C)c1c(C(=O)N[C@H]2CCOc3ccccc32)cnc2c(-c3c(F)cccc3F)c(C(F)F)nn12', 'C. elegans Slo-1a (Caenorhabditis elegans)', 8.3),
  ('COc1c(F)cc(F)c(-c2c(C)nn3c(C(C)C)c(C(=O)N[C@H]4CCOc5ccccc54)cnc23)c1F', 'C. elegans Slo-1a (Caenorhabditis elegans)', 9.2),
  ('Cc1c(C(=O)N[C@H]2CCCc3ccccc32)cnc2c(-c3ccc(Cl)cc3)cnn12', 'C. elegans Slo-1a (Caenorhabditis elegans)', 4.8),
  ('O=C(N[C@H]1CCOc2ccccc21)c1cnc2c(-c3cc(Cl)c(F)c(Cl)c3)c(C(F)F)nn2c1C1CC1', 'C. elegans Slo-1a (Caenorhabditis elegans)', 7.6),
  ('Cc1nn2c(CN(C)C)c(C(=O)N[C@H]3CCc4ccccc43)cnc2c1-c1cccc(Cl)c1Cl', 'C. elegans Slo-1a (Caenorhabditis elegans)', 7.8),
  ('Cc1nn2c(N3CCOCC3)c(C(=O)N[C@H]3CCOc4ccccc43)cnc2c1-c1c(F)ccc(Cl)c1F', 'C. elegans Slo-1a (Caenorhabditis elegans)', 8.8),
  ('Cc1nn2c(C(C)C)c(C(=O)N[C@H]3CCOc4ccccc43)cnc2c1-c1ccc(Cl)c(Cl)c1', 'C. elegans Slo-1a (Caenorhabditis elegans)', 8.1),
  ('O=C(N[C@H]1CCOc2ccccc21)c1cnc2c(-c3ccc(Cl)cc3Cl)c(C(F)F)nn2c1C1CC1', 'C. elegans Slo-1a (Caenorhabditis elegans)', 8.4),
  ('O=C(N[C@H]1CCOc2ccccc21)c1cnc2c(-c3c(F)cccc3Cl)c(C(F)F)nn2c1C1CC1', 'C. elegans Slo-1a (Caenorhabditis elegans)', 8.5),
  ('O=C(N[C@H]1CCOc2ccccc21)c1cnc2c(-c3cccc(F)c3F)c(C(F)F)nn2c1C1CC1', 'C. elegans Slo-1a (Caenorhabditis elegans)', 8.4),
  ('CC(C)c1c(C(=O)N[C@H]2CCOc3ccccc32)cnc2c(-c3cccc(Cl)c3Cl)c(C(F)F)nn12', 'C. elegans Slo-1a (Caenorhabditis elegans)', 8.5),
  ('CCc1c(C(=O)N[C@H]2CCOc3ccccc32)cnc2c(-c3c(F)cccc3Cl)c(C)nn12', 'C. elegans Slo-1a (Caenorhabditis elegans)', 8.2),
  ('Cc1nn2c(NC3CC3)c(C(=O)N[C@H]3CCOc4ccccc43)cnc2c1-c1cccc(Cl)c1Cl', 'C. elegans Slo-1a (Caenorhabditis elegans)', 8.2),
  ('CCc1c(C(=O)N[C@H]2CCOc3ccccc32)cnc2c(-c3ccc(F)c(F)c3F)c(C)nn12', 'C. elegans Slo-1a (Caenorhabditis elegans)', 8.3),
  ('CCc1c(C(=O)N[C@H]2CCOc3ccccc32)cnc2c(-c3ccc(F)c(F)c3)c(C)nn12', 'C. elegans Slo-1a (Caenorhabditis elegans)', 7.7),
  ('Cc1nn2c(N(C)CC[S+](C)[O-])c(C(=O)NC3CCOc4ccccc43)cnc2c1-c1cc(Cl)cc(Cl)c1 (mixture of isomers)', 'C. elegans Slo-1a (Caenorhabditis elegans)', 7.7),
  ('Cc1nn2c(C)c(C(=O)N[C@H]3CCc4ccccc43)cnc2c1-c1ccc(Cl)cc1', 'C. elegans Slo-1a (Caenorhabditis elegans)', 7.2),
  ('COc1c(F)ccc(-c2c(C(F)F)nn3c(C(C)C)c(C(=O)N[C@H]4CCOc5ccccc54)cnc23)c1F', 'C. elegans Slo-1a (Caenorhabditis elegans)', 8.6),
  ('CC(C)c1c(C(=O)N[C@H]2CCc3ccccc32)cnc2c(-c3cccc(F)c3F)c(Cl)nn12', 'C. elegans Slo-1a (Caenorhabditis elegans)', 8);
